# tested_target: human TLR7 (Homo sapiens, UniProt Q9NYK1)
# Construct: host or cells: HEK293 (HEK-Blue hTLR7)
# Sequence (Q9NYK1 27-1049): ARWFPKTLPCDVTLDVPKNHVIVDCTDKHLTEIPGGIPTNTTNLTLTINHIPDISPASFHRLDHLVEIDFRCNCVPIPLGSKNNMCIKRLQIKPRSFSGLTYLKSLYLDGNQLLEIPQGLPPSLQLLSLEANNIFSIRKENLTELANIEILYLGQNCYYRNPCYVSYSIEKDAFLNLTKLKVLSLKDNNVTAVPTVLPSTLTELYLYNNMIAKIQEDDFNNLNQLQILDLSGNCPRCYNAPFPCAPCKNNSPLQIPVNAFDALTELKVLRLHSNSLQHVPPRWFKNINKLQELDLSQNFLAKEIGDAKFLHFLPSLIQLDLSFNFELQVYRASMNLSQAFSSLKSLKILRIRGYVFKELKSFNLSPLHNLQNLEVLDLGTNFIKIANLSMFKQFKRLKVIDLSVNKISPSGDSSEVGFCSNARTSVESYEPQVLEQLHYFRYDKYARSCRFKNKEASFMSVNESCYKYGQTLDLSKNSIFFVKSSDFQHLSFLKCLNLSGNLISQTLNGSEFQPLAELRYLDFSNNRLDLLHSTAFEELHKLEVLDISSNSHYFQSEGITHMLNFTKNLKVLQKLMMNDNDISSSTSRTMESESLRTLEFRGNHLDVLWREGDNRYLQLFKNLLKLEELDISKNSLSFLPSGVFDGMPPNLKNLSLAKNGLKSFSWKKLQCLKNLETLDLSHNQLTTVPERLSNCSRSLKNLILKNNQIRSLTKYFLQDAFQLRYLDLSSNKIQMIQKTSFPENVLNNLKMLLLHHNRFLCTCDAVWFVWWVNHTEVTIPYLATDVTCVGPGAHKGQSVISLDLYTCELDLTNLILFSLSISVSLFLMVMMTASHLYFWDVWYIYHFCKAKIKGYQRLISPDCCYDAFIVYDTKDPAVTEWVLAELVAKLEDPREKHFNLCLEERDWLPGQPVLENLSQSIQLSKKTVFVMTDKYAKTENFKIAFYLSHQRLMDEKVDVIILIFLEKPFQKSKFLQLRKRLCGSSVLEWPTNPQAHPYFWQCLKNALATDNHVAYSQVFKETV
# test_description: HEK293-Blue hTLR7 Reporter Assay (QUANTI-BLUE, SEAP readout)
# Assay type: cell-based
# setup_conditions: HEK-Blue-hTLR7 cells, 24 hrs treatment, Table 1, B1-B232
pEC50: −log10 of the molar value.
Outcome label depends on pEC50 relative to 8: at/above gives MET, below gives NOT MET.

Here's what some known entries look like.
CCCCOc1nc(N)c2ncc(Cc3ccc(N4CCNCC4)c(OCC)c3)n2n1 [Compound B26]
NOT MET
CCC[C@@H](C)Nc1nc(N)c2ncc(Cc3cnc(N4CCC(CNC)CC4)c(C)c3)n2n1 (single isomer, unassigned) [Compound B214]
NOT MET
CCCCOc1nc(N)c2ncc(Cc3cnc(N4CCN(S(=O)(=O)CCC)CC4)c(C)c3)n2n1 [Compound B89]
NOT MET
CCC(CC)Oc1nc(N)c2ncc(Cc3cnc(N4CCN(C(=O)CN(C)C)CC4)c(C)c3)n2n1 [Compound B200]
NOT MET
CCC[C@H](C)Nc1nc(N)c2ncc(Cc3cnc(N4CCC(CN(C)C)CC4)c(C)c3)n2n1 (single isomer, unassigned) [Compound B147]
MET
CCCCOc1nc(N)c2ncc(Cc3cnc(N4CCN(C(=O)CN(C)C(C)=O)CC4)c(C)c3)n2n1 [Compound B58]
NOT MET
CCCC(C)Nc1nc(N)c2ncc(Cc3cnc(N4CCC(CN(C)C)CC4)c(C)c3)n2n1 (stereo not drawn) [Compound B137]
MET
CCCC(CCC)Nc1nc(N)c2ncc(Cc3cnc(N4CCC(CN(C)C)CC4)c(C)c3)n2n1 [Compound B190]
MET

Q: Could you verify whether the entry CCCC(C)Nc1nc(N)c2ncc(Cc3cnc(N4CCC(NC)CC4)c(C)c3)n2n1 (stereo not drawn) [Compound B166] shows pEC50 of no less than 8?
A: MET

Q: Could you verify whether the entry CCCCOc1nc(N)c2ncc(Cc3cnc(N4CC5CCCCC5C4)c(C)c3)n2n1 (stereo not drawn) [Compound B38] shows pEC50 of no less than 8?
A: NOT MET

Q: Could you verify whether the entry CCCCOc1nc(N)c2ncc(Cc3cnc(N4CCN(CCOC)CC4)c(C)c3)n2n1 [Compound B107] shows pEC50 of no less than 8?
A: NOT MET

Q: Could you verify whether the entry CCCCOc1nc(N)c2ncc(Cc3cnc(N4CCN(C(=O)CNC)CC4)c(C)c3)n2n1 [Compound B32] shows pEC50 of no less than 8?
A: NOT MET

Q: Could you verify whether the entry CCC[C@@H](C)Nc1nc(N)c2ncc(Cc3cnc(N4CCC(N(C)C)CC4)c(C)c3)n2n1 (single isomer, unassigned) [Compound B185] shows pEC50 of no less than 8?
A: NOT MET
